experimental target: MDM2 (Homo sapiens, UniProt Q00987)
Sequence (Q00987 whole entry): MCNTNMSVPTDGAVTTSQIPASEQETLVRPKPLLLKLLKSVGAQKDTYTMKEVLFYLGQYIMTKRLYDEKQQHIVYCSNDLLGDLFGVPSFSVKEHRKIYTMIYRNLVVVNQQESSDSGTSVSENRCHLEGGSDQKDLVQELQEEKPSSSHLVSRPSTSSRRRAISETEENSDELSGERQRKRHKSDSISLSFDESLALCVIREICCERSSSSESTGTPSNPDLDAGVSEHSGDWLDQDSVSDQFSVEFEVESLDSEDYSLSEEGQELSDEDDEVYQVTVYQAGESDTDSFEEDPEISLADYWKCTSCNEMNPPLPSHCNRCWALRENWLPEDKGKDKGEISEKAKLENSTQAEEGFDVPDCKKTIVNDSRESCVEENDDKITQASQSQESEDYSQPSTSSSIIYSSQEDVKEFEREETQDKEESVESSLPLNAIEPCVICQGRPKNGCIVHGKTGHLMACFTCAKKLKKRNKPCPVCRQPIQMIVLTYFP
assay info: MDM2 binding screen: displacement of fluorescent p53 peptide probe FP53 (fluorescence polarization)
applied conditions: Acid 91; replicate; crude macrocycle reactions
Numbered stars: 1 amine (or outer) side, 2 acyl side, 3 side chain; on linkers, the order of the positions; unused ones are H or OH. Bridge positions count the residues as written; N and C are the ends. Square brackets hold non-standard residues; d marks the D form. Peptide text beside a SMILES is read from it. * marks the point of attachment. Cysteamide = C(CS[*:3])N[*:1]; X1 = O=C(/C=C/c1ccccc1)*; Api = NC1(C(=O)O)CCNCC1; Dap = NC[C@H](N)C(=O)O; Mpa = O=C(O)CCS
outcome measure: fraction fluorescent probe displaced, Replicate

O=C(/C=C/c1ccccc1)NC[C@@H]1NC(=O)[C@@H]2CCCN2C(=O)CCSSCCNC(=O)[C@H](Cc2ccccc2)NC1=O [X B1 D3 F Acid 91] ([Mpa]P[Dap](X1)F-Cysteamide; disulfide 1-C) : 0.0168
O=C(C=Cc1ccccc1)NC1CC2C(=O)N3CCCC3C(=O)NCCSSCCC(=O)NC(Cc3c[nH]c4ccccc34)C(=O)N2C1 (stereo not drawn) [X W D5 B1 Acid 91] : 0.07
O=C1CCSSCCNC(=O)C2CN(C(=O)C=Cc3ccccc3)CCN2C(=O)C(Cc2ccccc2)NC(=O)c2cccc(c2)CN1 (stereo not drawn) [X B5 F D7 Acid 91] : -0.06
O=C1CCSSCCNC(=O)[C@H](Cc2ccccc2)NC(=O)c2cccc(c2)CNC(=O)C2(CCN(C(=O)/C=C/c3ccccc3)CC2)N1 [X D6 B5 F Acid 91] : -0.0333

[1] O=C1NCCSSCCC(=O)N2CCC[C@H]2C(=O)NC2(CCN(C(=O)/C=C/c3ccccc3)CC2)C(=O)N[C@H]1Cc1ccccc1 [X B1 D6 F Acid 91] ([Mpa]P[Api](X1)F-Cysteamide; disulfide 1-C)
[2] O=C(/C=C/c1ccccc1)NC[C@@H]1NC(=O)[C@H](Cc2c[nH]c3ccccc23)NC(=O)CCSSCCNC(=O)c2cccc(c2)CNC1=O [X W D3 B5 Acid 91]
[3] O=C1CCNC(=O)C2(CCN(C(=O)C=Cc3ccccc3)CC2)NC(=O)C(Cc2c[nH]c3ccccc23)NC(=O)CCSSCCN1 (stereo not drawn) [X W D6 B2 Acid 91]
[4] O=C1CCSSCCNC(=O)C2CN(C(=O)C=Cc3ccccc3)CCN2C(=O)C(Cc2c[nH]c3ccccc23)NC(=O)c2cccc(c2)CN1 (stereo not drawn) [X B5 W D7 Acid 91]
Query :: Order the entries by their reported fraction fluorescent probe displaced, Replicate, beginning at the minimum. Arrange the labels as the request states and list them.
Result :: 4, 3, 1, 2

[1] O=C(C=Cc1ccccc1)NC1CC2C(=O)N3CCCC(C3)C(=O)NCCSSCCC(=O)NC(Cc3c[nH]c4ccccc34)C(=O)N2C1 (stereo not drawn) [X W D5 B4 Acid 91]
[2] O=C(C=Cc1ccccc1)NC1CC2C(=O)NC(Cc3ccccc3)C(=O)NCCSSCCC(=O)NCCC(=O)N2C1 (stereo not drawn) [X B2 D5 F Acid 91]
Query :: Identify the entry with the smaller fraction fluorescent probe displaced, Replicate: 1 or 2 . Write down the label of the entry you select.
Result :: 2

[a] O=C1NCCSSCCC(=O)N2CCC[C@H]2C(=O)NC2(CCN(C(=O)/C=C/c3ccccc3)CC2)C(=O)N[C@H]1Cc1c[nH]c2ccccc12 [X B1 D6 W Acid 91] ([Mpa]P[Api](X1)W-Cysteamide; disulfide 1-C)
[b] O=C(/C=C/c1ccccc1)NC[C@@H]1NC(=O)[C@H](Cc2c[nH]c3ccccc23)NC(=O)CCNC(=O)CCSSCCNC1=O [X B2 W D3 Acid 91]
Query :: Hi, I'm comparing two records. Which one has the lower fraction fluorescent probe displaced, Replicate, a or b ? Pick one; state its label.
Result :: a

Origin of the recorded values: paper PMC9250534
